Reference source: patent US20210155689A1

- targetOrSystem: T1, hFc tagged monkey LAG-3 protein (cLAG-3-hFc protein) (monkey; human)
- T1 construct: Made in HEK293 cells; also called monkey LAG-3 extracellular domain protein; not shown: human IgG Fc fragment (hFc) of the pCpC vector
- T1 chain: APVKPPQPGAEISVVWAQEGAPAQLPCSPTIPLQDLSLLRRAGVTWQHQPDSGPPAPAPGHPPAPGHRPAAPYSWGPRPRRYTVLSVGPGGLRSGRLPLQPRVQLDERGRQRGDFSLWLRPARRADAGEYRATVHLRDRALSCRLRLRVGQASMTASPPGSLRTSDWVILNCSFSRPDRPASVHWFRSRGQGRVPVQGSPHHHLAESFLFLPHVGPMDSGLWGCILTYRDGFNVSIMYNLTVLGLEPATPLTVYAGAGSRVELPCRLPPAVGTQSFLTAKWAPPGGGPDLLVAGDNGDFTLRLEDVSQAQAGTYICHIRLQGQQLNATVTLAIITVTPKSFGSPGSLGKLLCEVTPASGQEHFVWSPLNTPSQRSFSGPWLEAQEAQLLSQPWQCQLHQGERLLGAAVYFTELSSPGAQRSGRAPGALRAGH
- assayDetails: ELISA, cLAG-3-hFc coated; 0.0667 nM
As shown below, each of these binders has a reported OD450 value.

binder	OD450 (OD450)
405B8H3 (LAG-3 mouse-human chimeric antibody) (antibody, V domains shown, also called mouse-human chimeric antibody 405B8H3) VH: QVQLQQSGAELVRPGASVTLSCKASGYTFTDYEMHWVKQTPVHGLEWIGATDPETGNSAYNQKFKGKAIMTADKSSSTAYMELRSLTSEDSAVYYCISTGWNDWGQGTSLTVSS VL: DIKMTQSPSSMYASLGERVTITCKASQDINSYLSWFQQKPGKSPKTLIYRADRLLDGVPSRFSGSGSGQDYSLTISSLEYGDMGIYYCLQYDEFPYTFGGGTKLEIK	1.96
409B11E12 (LAG-3 mouse-human chimeric antibody) (antibody, V domains shown) VH: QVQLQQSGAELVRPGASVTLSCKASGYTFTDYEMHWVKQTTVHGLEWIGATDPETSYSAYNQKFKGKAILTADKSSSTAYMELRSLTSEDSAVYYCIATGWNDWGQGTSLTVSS VL: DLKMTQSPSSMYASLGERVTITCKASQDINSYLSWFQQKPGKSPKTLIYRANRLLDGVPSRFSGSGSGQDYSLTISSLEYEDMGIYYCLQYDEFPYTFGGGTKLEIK	1.91
409D4E10 (LAG-3 mouse-human chimeric antibody) (antibody, V domains shown) VH: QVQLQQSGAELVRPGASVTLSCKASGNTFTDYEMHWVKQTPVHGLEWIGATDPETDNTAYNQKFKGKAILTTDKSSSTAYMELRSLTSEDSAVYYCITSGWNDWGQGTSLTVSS VL: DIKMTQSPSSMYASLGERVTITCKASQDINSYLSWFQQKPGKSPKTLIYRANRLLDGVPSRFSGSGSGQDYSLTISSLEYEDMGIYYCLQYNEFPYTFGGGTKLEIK	3.05
556F6B8 (LAG-3 mouse-human chimeric antibody) (antibody, V domains shown, also called 556F8B8) VH: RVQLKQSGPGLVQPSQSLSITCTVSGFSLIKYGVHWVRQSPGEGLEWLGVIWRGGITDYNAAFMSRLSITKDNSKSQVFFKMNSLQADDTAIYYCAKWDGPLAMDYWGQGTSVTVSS VL: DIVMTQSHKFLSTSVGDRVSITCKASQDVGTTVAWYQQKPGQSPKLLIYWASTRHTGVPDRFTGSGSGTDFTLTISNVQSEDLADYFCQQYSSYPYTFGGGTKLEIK	2.43
105F1E10 (LAG-3 mouse-human chimeric antibody) (antibody, V domains shown) VH: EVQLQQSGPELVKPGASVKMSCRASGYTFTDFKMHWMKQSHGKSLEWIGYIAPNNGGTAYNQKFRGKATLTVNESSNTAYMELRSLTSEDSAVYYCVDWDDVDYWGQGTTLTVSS VL: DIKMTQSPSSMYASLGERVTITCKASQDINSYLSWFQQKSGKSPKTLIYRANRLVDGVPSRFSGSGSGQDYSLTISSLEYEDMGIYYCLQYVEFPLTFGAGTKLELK	1
